tested on: CAL-148; assay: normalised viability (% of control), CellTiter-Blue; higher = more viable cells (about 100 = DMSO control); conditions: incubation time: 72 h
measured-attribute: normalised viability (%)
Reply with just the number (in %).

GET /values?readout=normalised viability&system=CAL-148&item= C[C@]12CC[C@@H]3c4ccc(OC(=O)N(CCCl)CCCl)cc4CC[C@H]3[C@@H]1CC[C@@H]2O [Estramustine] (990 nM) 111

GET /values?readout=normalised viability&system=CAL-148&item= COc1cc(F)c(F)c(Nc2ccc(I)cc2F)c1NS(=O)(=O)C1(C[C@H](O)CO)CC1 [RDEA119] (10000 nM) 71.5

GET /values?readout=normalised viability&system=CAL-148&item= C[C@]1(O)C[C@@H](c2nc(-c3ccc4ccc(-c5ccccc5)nc4c3)c3c(N)nccn32)C1 [OSI-906] (10000 nM) 118

GET /values?readout=normalised viability&system=CAL-148&item= O=NN(CCCl)C(=O)NCCCl [Carmustine] (10000 nM) 109

GET /values?readout=normalised viability&system=CAL-148&item= CC[C@@H]1C(=O)OC[C@@H]1Cc1cncn1C [Pilocarpine] (40000 nM) 73.2

* * *

tested on: SK-BR-3; assay: normalised viability (% of control), CellTiter-Blue; higher = more viable cells (about 100 = DMSO control); settings: 10000 nM; incubation time: 72 h
# key: entry, value: normalised viability
Reply with just the number (in %).

// normalised viability lookup, key: "CC(C)(C)c1cnc(CSc2cnc(NC(=O)C3CCNCC3)s2)o1" 4.75

// normalised viability lookup, key: "O=P(O)(O)C(O)(Cn1ccnc1)P(=O)(O)O" 96.5

// normalised viability lookup, key: "Nc1ncn([C@@H]2O[C@H](CO)[C@@H](O)[C@H]2O)c(=O)n1" 66.6

// normalised viability lookup, key: "O=NN(CCCl)C(=O)NCCCl" 96.9

* * *

tested on: CAL-51; settings: 72 h
# key: entry, value: EC50, CellTiter-Glo
Reply with just the number (in nM).

molecule	measurement-units	reported-measurement
Cc1sc2c(c1C)C(c1ccc(Cl)cc1)=N[C@@H](CC(=O)OC(C)(C)C)c1nnc(C)n1-2 [(+)JQ1]	nM	7440
CC(=O)N(O)CCCCCNC(=O)CCC(=O)N(O)CCCCCNC(=O)CCC(=O)N(O)CCCCCN	nM	6360

GET /values?readout=EC50, CellTiter-Glo&system=CAL-51&item= Cn1cc(C2=Nc3cc(NC(=O)C(N)C4CCCCC4)cc4c3C2=CNNC4=O)cn1 (stereo unspecified) 2380

GET /values?readout=EC50, CellTiter-Glo&system=CAL-51&item= "Nc1nc2[nH]cnc2c(=S)[nH]1" 2310

GET /values?readout=EC50, CellTiter-Glo&system=CAL-51&item= "Cc1ccc([N+](=O)[O-])cc1S(=O)(=O)N(C)/N=C/c1cnc2ccc(Br)cn12" 21.3

* * *

system: HCC1599; experiment: normalised response (% of control), CellTiter-Glo; higher = more viable cells (100 = DMSO, 0 = benzethonium chloride kill control); conditions: incubation time: 72 h
measured-attribute: normalised response (%)
Reply with just the number (in %).

Example entries begin here.
compound	measurement-units	reported-measurement
CC[C@@H]1C(=O)OC[C@@H]1Cc1cncn1C [Pilocarpine] (40000 nM)	%	104
Oc1ncnc2[nH]ncc12 [Allopurinol] (10000 nM)	%	102
CC(C)(C)c1cnc(CSc2cnc(NC(=O)C3CCNCC3)s2)o1 [SNS-032] (10000 nM)	%	7.5
CC1(C)CCC(CN2CCN(c3ccc(C(=O)NS(=O)(=O)c4ccc(NCC5CCOCC5)c([N+](=O)[O-])c4)c(Oc4cnc5[nH]ccc5c4)c3)CC2)=C(c2ccc(Cl)cc2)C1 [ABT-199] (10000 nM)	%	66.4

// normalised response lookup, key: CC(=O)c1c(C)c2cnc(Nc3ccc(N4CCNCC4)cn3)nc2n(C2CCCC2)c1=O [Palbociclib] (10000 nM) 86.5

// normalised response lookup, key: O=NN(CCCl)C(=O)NCCCl [Carmustine] (10000 nM) 104

// normalised response lookup, key: CC1(C)CNc2cc(NC(=O)c3cccnc3NCc3ccncc3)ccc21 [Motesanib] (10000 nM) 107
